Test system: RXRa homodimer (NR concentration 180 nM)
Test: PBM binding z-score (relative to random genomic background probes); higher = stronger binding; sequences stand for … in GC…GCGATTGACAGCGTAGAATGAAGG
Lab note: anything with PBM binding z-score at or over 1 counts as 1; the rest go in 0.

# entry-sequence, category-label
rows = [
    ("CCTGTTAGTTGACCATAAGGGCAACCGAAGCTCG", 0),
    ("TATACAGGGTCAAAGGCCAGGGTACGAATGTCGA", 1),
    ("CCGACTGGGGCAGAAGGGTTACCATACCATCCGG", 0),
    ("CGAACTAGGTCATCCAGGACAGTGGATACATTGA", 1),
    ("ATATGTAGGTTATCTGGTCATTCAGTTTGCGCAT", 1),
]

###

Test system: PPARg:RXRa IVT, anti-PPARg (NR concentration 270 nM, RXRa partner concentration 90 nM)
Assay: PBM binding z-score (relative to random genomic background probes); higher = stronger binding; sequences stand for … in GC…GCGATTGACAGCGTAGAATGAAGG
Collected PBM binding z-score values appear next to each entry.

# entry-sequence, PBM binding z-score
data = [
    ("CGAACGAGGGCATGAGTCGATAGCAAATGCCGAT", 1.89),
    ("CCTGCTAGGTCAATGGCCAGCTAAAGCAGCTCGC", 3.04),
    ("CGAACTAGGTCATTGACAGGACAGAGAATAGTAA", 8.14),
    ("CCGACTGGGGCAAGGTGACCATAACGCACAGCCA", 3.79),
    ("ATCGAAAGGTAGAAGGTGAGTATACCCACCCGAA", 0.667),
    ("ATCTCTAGGTAAAGATAGTTCAGTGAATGCAAAT", 1.66),
    ("TCTAGCAGGCCAGAGGGTCGCTCAAGAGGTACGG", -0.213),
    ("CGTCAAAGTTCGACTAAGGTAACGTAAAGCACGC", 0.996),
    ("AGAACGAGGGCACGCAGAGTTGATAGCAGAGTAG", 4.09),
    ("GCAGACAGGTGAAACTCAGGTAACTCAGGGTGGC", 0.656),
    ("CAAACTAGGTCAAGAGGTCAAAATCCGCTTCCCG", 8.13),
    ("CGAACGAGGGCATGACTTGATAGCAAATGCCGAT", 1.81),
    ("TGAATGAGGTTATAAGATTAGGGAACGTTGCAAA", 1.82),
    ("CGAGCTAGGTCATCCAGGACAGTGAATACATTGA", 3.06),
    ("GATACAGGGTCAGCTAAAGGCCAGAGTATGGAAA", 2.78),
    ("AACGAAAGGTCGAGGTGAGTATAGAGAAAGGGAA", 2.34),
    ("GCCTATAGGTAATACAAGGTGAAAGTCCGATTGT", 1.53),
    ("CGTCCAAGGTCAGAAAGGTCAGTGAATGCCGAGT", 3.14),
    ("ACTTACGGGTAAACGAGGTTATAGCACGCGTATA", 1.16),
    ("GTACCAAGGTGGATAGGTCGTTGATGAGTAGGCG", -0.0801),
    ("TCGAGTAGGTTAGTCGGGGCATTAAGCCAACATA", 1.85),
    ("ACTCGGAGGACAAAGGTCAGAGCCACGCCAGTGA", 3.88),
    ("ACACCAAGGTGATCGTGAGGTCGTTGATACTAAC", 1.04),
    ("ACTAGCAGGCCAAGTTCGGGTCACTCAAACAAAG", 1.07),
    ("CGTCAAAGTTCAACTCAGGTAACGTAAAGCACGC", 2.02),
]
